Entries and their GFP response vs DMSO values follow.
- Protocol: RPL19A-GFP modulators, yeast TOR pathway, confirmation, cell-based, S. cerevisiae, flow cytometry, cherry picks, mother/daughter gates (AID 2270)
- Test conditions: S. cerevisiae RPL19A-GFP strain, 3 h, measured here: mother cell gate, at 10 µM, stronger effect = lower value, 100 = same GFP as DMSO wells
Report only the number, with the unit % understood.

>  <Molecule>
CCOC(=O)C1=C(Cc2ccc(F)cc2)C(=O)c2ccccc2C1=O

>  <Unit label>
%

>  <GFP response vs DMSO>
95.8

$$$$
>  <Molecule>
CCOC(=O)/C=C1\SCC(=O)N1Cc1nnc(-c2ccccc2Br)o1

>  <Unit label>
%

>  <GFP response vs DMSO>
96.4

$$$$
>  <Molecule>
CCCCCCCCn1c(=O)c(C(=O)OCC)c(O)c2ccccc21

>  <Unit label>
%

>  <GFP response vs DMSO>
99.4

$$$$
>  <Molecule>
CCCOc1ccc(C(=O)NNC(=S)NC(=O)CC)cc1

>  <Unit label>
%

>  <GFP response vs DMSO>
117

$$$$
>  <Molecule>
CC(=O)c1ccc(NC(=O)CN2CCC(NC(=O)C3CCCCC3)CC2)cc1

>  <Unit label>
%

>  <GFP response vs DMSO>
103

$$$$

Qu. I would be grateful if you could share the reported GFP response vs DMSO for COc1ccc(C2CC(c3ccccc3)=NN2S(=O)(=O)c2ccc(C)cc2)c(OC)c1 (stereo unspecified) .
Ans. 100

Qu. I would be grateful if you could share the reported GFP response vs DMSO for O=C(Nc1ccc(F)cc1)C1CCCN(c2cnccn2)C1 (stereo unspecified) .
Ans. 102

Qu. I would be grateful if you could share the reported GFP response vs DMSO for COc1ccc(NC2=C(Cl)C(=O)N(CCc3ccccc3)C2=O)cc1 .
Ans. 99.2

Qu. I would be grateful if you could share the reported GFP response vs DMSO for CSC1=NC(=O)/C(=C/c2ccc(SC)cc2)S1 .
Ans. 92.5

Qu. I would be grateful if you could share the reported GFP response vs DMSO for CN(Cc1ccccc1)S(=O)(=O)c1ccc(C(=O)Nc2nnc(C3CC3)o2)cc1 .
Ans. 105

Qu. I would be grateful if you could share the reported GFP response vs DMSO for COc1ccc(CCNC2=C(Cl)C(=O)N(CCc3ccc(OC)c(OC)c3)C2=O)cc1OC .
Ans. 99.3

Qu. I would be grateful if you could share the reported GFP response vs DMSO for Cc1cccc(C)c1NC(=O)C(Cl)C(=O)c1ccccc1 (stereo unspecified) .
Ans. 82.5

Qu. I would be grateful if you could share the reported GFP response vs DMSO for CC(C)c1nnc(NC(=O)c2nc(S(=O)(=O)Cc3ccc(F)cc3)ncc2Cl)s1 .
Ans. 96.9

Qu. I would be grateful if you could share the reported GFP response vs DMSO for Cc1cccc(NC(c2ccc(C)s2)c2ccc3ccc(C)nc3c2O)n1 (stereo unspecified) .
Ans. 98.6

Qu. I would be grateful if you could share the reported GFP response vs DMSO for CC1=C/C(=N\OS(=O)(=O)c2ccccc2)C(C)=CC1=O .
Ans. 66.3

Qu. I would be grateful if you could share the reported GFP response vs DMSO for Oc1c(Br)cc(Br)cc1C=Nc1ccc2[nH]ncc2c1 .
Ans. 97.2

Qu. I would be grateful if you could share the reported GFP response vs DMSO for CCCc1cc(=O)n(-c2nc3ccccc3s2)[nH]1 .
Ans. 101

Qu. I would be grateful if you could share the reported GFP response vs DMSO for O=C(OCCOc1ccccc1)c1n[nH]c2ccccc12 .
Ans. 97.2

---

- Protocol: AGP1-GFP expression modulators, hit retest, confirmation, cell-based, flow cytometry, S. cerevisiae, cherry picks (AID 2273);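 also: median GFP channel fluorescence over the whole cell population gate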
- Test conditions: S. cerevisiae AGP1-GFP strain, 3 h, at 10 µM
Quantity name: GFP response, % of DMSO (%)
Report only the number, with the unit % understood.

Illustrative cases are given below, each with its answer.
>  <Structure notation>
Cc1cccn2c(N)c(-c3ccccc3)nc12

>  <GFP response, % of DMSO / %>
102

$$$$
>  <Structure notation>
COc1ccc(NC(=O)Nc2ccon2)c(OC)c1

>  <GFP response, % of DMSO / %>
106

$$$$
>  <Structure notation>
CCOC(=O)c1ccc(NC(=O)CCc2nc(-c3ccc(Cl)cc3)no2)cc1

>  <GFP response, % of DMSO / %>
95.4

$$$$

Qu. I would be grateful if you could share the reported GFP response, % of DMSO for CS/C(N)=N/N=C/c1ccc2c(c1)OCO2 .
Ans. 102

Qu. I would be grateful if you could share the reported GFP response, % of DMSO for CCOc1ccc(NC2=C(Cl)C(=O)N(Cc3ccccc3)C2=O)cc1 .
Ans. 95.8

Qu. I would be grateful if you could share the reported GFP response, % of DMSO for CCCc1ccc(OCC(=O)NNC(=S)NC(=O)c2ccco2)cc1 .
Ans. 123

---

- Protocol: modulators of CIT2-GFP expression in yeast, confirmation, S. cerevisiae, GFP fusion, cherry picks, mother/daughter gates (AID 2274)
- Test conditions: S. cerevisiae CIT2-GFP strain, flow cytometry, 3 h; at 10 µM; stronger effect = higher value
Entries and their GFP response, % of DMSO values follow.
Report only the number, with the unit % understood.

Illustrative cases are given below, each with its answer.
>  <Structure notation>
COc1ccc(N2CCN(C(=O)CCc3nnc4ccc(N5CCCC5)nn34)CC2)cc1

>  <GFP response, % of DMSO, %>
104

$$$$
>  <Structure notation>
O=C1C=C(c2ccc(Cl)cc2)C(=O)N1Nc1ccccc1

>  <GFP response, % of DMSO, %>
66.5

$$$$
>  <Structure notation>
CCOC(=O)c1ccc(NC(=O)CCc2nc(-c3cccc(C)c3)no2)cc1

>  <GFP response, % of DMSO, %>
102

$$$$
>  <Structure notation>
CCN(Cc1ccccc1)S(=O)(=O)c1ccc(C(=O)Nc2nnc(C3CC3)o2)cc1

>  <GFP response, % of DMSO, %>
99.3

$$$$
>  <Structure notation>
CCN(CC)Cc1c(O)ccc2c(C)c(CC(=O)OC)c(=O)oc12

>  <GFP response, % of DMSO, %>
100

$$$$

Qu. I would be grateful if you could share the reported GFP response, % of DMSO for O=C(O)CCC(=O)OCC1CCCCC1 .
Ans. 98.6

---

Entries and their response values follow.
- Protocol: yeast V-ATPase proton transport modulators, S. cerevisiae, pHLuorin, HTS validation (AID 504600);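 also: plate controls were DMSO for no effect and reference compound for full effect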
- Test conditions: S. cerevisiae pHLuorin cytosolic pH, at 10 µM, stronger effect = higher value
Report only the number, with the unit % understood.

Illustrative cases are given below, each with its answer.
>  <Compound>
CN1CCC(=C2c3ccccc3C=Cc3ccccc32)CC1

>  <Unit label>
%

>  <response>
-5.41

$$$$
>  <Compound>
O=C(CCCCC(=O)NC1CCCC1)NC1CCCC1

>  <Unit label>
%

>  <response>
3.11

$$$$
>  <Compound>
NCCOc1ccccc1OCCN

>  <Unit label>
%

>  <response>
-1.26

$$$$
>  <Compound>
COc1ccc(CCN(C)CCCC(C#N)(c2ccc(OC)c(OC)c2)C(C)C)cc1OC (stereo unspecified)

>  <Unit label>
%

>  <response>
1.25

$$$$
>  <Compound>
O=[N+]([O-])c1ccc2cn[nH]c2c1

>  <Unit label>
%

>  <response>
-6.52

$$$$

Qu. I would be grateful if you could share the reported response for C#CCN(C)CCCOc1ccc(Cl)cc1Cl .
Ans. 1.85

Qu. I would be grateful if you could share the reported response for CCOc1ccccc1OCCOc1ccc(F)cc1 .
Ans. -0.31

Qu. I would be grateful if you could share the reported response for O=C1CCCCCN1Cc1ccccc1 .
Ans. 5.84

Qu. I would be grateful if you could share the reported response for O=C(c1ccc([N+](=O)[O-])cc1)N1CCSC1c1ccccc1Cl (stereo unspecified) .
Ans. -2.22

Qu. I would be grateful if you could share the reported response for CCCCC1C(=O)N(c2ccccc2)N(c2ccccc2)C1=O .
Ans. -1.74

Qu. I would be grateful if you could share the reported response for CN(C)CCC(c1ccc(Br)cc1)c1ccccn1 (stereo unspecified) .
Ans. 2.41

Qu. I would be grateful if you could share the reported response for C[C@H](NC(=O)NCCc1ccccc1)C(=O)O .
Ans. -4.57

Qu. I would be grateful if you could share the reported response for COc1c(C)cc(C(=O)C2CCCN(Cc3ccc(Oc4ncccn4)cc3)C2)cc1C (stereo unspecified) .
Ans. 0.79

Qu. I would be grateful if you could share the reported response for COc1ccc2oc(=O)c(C(=O)N3CCN(c4ccccc4)CC3)cc2c1 .
Ans. -1.57

Qu. I would be grateful if you could share the reported response for CCn1c(O)c(/C=C2\C=Nc3ccccc32)sc1=O .
Ans. 0.06

Qu. I would be grateful if you could share the reported response for COc1ccc(CCNC(=O)CC(c2ccccc2)c2cccc(C)c2O)cc1OC (stereo unspecified) .
Ans. 1.13

Qu. I would be grateful if you could share the reported response for O=C(NCCN1CCCCC1)c1c(O)c2ccccc2[nH]c1=O .
Ans. 3.25

Qu. I would be grateful if you could share the reported response for CC1(C)CC(CC(=O)Nc2nccs2)(c2ccccc2)CCO1 (stereo unspecified) .
Ans. 5.11

Qu. I would be grateful if you could share the reported response for CC(C)(C)NCC(O)c1cc(O)cc(O)c1 (stereo unspecified) .
Ans. -6.14

Qu. I would be grateful if you could share the reported response for CN(C)CCOc1ccc(Cl)cc1C(C)(C)C .
Ans. -1.18

Qu. I would be grateful if you could share the reported response for COc1ccc2c(c1)[nH]c1c(=O)n(Cc3ccccn3)cnc12 .
Ans. -2.14

Qu. I would be grateful if you could share the reported response for CC[n+]1c(C)sc2cc(C)ccc21 .
Ans. -1.58

Qu. I would be grateful if you could share the reported response for CC(C)NCC(O)COc1ccc(CCOCC2CC2)cc1 (stereo unspecified) .
Ans. 9.7
